System: SNU475
protocol-text: HCC cell survival by cell nuclear staining, 24 hours, SNU475
Type: cell-based
condition-details: Homo sapiens, SNU-475
quantity: pIC50
Would you please state pIC50, meaning minus log10 of the concentration in mol/L, as a bare number?

Readout pIC50 for COc1ccc([C@@H](C)Nc2cccc3c2C(=O)N(C2CCC(=O)NC2=O)C3=O)cc1 (stereo partly shown) , test system SNU475, was 5.84

---

Listing of entries alongside the reported Kd.
experimental-target: UniProtKB Q96SW2
Sequence (Q96SW2 whole entry): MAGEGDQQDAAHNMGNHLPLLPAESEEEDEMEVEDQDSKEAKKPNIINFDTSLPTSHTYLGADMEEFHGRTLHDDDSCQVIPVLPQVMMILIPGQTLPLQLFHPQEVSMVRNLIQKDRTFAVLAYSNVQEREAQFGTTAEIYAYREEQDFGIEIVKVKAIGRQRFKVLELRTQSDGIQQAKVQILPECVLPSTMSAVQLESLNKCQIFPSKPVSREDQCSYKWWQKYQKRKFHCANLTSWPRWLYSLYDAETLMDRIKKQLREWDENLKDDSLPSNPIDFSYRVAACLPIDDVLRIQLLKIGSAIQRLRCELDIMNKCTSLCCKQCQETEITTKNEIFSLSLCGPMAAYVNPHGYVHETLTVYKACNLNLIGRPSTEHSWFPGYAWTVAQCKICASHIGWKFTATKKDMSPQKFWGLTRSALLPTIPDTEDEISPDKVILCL
protocol-text: CRBN affinity test
Assay type: binding
condition-details: purified CRBN proteins expressed in E. coli
Unit nM implied. Number only.

Here is how some compounds turned out for Kd.
C[C@H](CO)Nc1cccc2c1C(=O)N(C1CCC(=O)NC1=O)C2=O (stereo partly drawn) [AST-DT-220] | 52
COc1ccc([C@@H](C)Nc2cccc3c2C(=O)N(C2CCC(=O)NC2=O)C3=O)cc1 (stereo partly drawn) [AST-DT-218] | 16

Now look at this entry.
// Kd value for CCCC(C)Nc1cccc2c1C(=O)N(C1CCC(=O)NC1=O)C2=O (stereo in doubt) [AST-DT-135] : 29
